Values from PubChem BioAssay AID1159580

Exercise: for every item that follows, state its recorded normalized growth.
Experiment: chemical genetic growth profiling, strain panel (AID 1159580);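 note: tested at 20 µM; growth read once vehicle control cultures reached saturation at 30 °C; 1 = growth at the plate median or of vehicle wells; lower values mean less growth of the strain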
Details: S. cerevisiae deletion strains, growth OD, locus YOR106W, strain vam3, hits give low values
Hit rate of the full screen: of about 5,500 compounds, about 2,000 (36%) were called active. Another 18% or so got no clear call; they are omitted. Some of the results follow.
Numbers only.

Solved entries:
CC(=CC1CCC(C)C2CCC(C)=C12)C(=O)O (centres undefined)
0.914
COC(=O)CC1C(C)(C(=O)c2ccoc2)CC2OCC34C(CC(=O)OC)C5(C)CC36OC3(C)OC1(C(OC(C)=O)C6(OC(C)=O)C5OC(=O)C(C)C)C24O3 (centres undefined)
0.991

Dear colleague, could you send me normalized growth for each of the items below? Thanks.
1. NNCc1ccccc1
2. O=c1c(O)c(-c2ccc(O)cc2)oc2ccccc12
3. CC(=O)NS(=O)(=O)c1ccc(N)cc1
4. O=C(Nc1ccc([N+](=O)[O-])cc1Cl)c1cc(Cl)ccc1O
5. CC[C@H]1OC(=O)[C@H](C)[C@@H](O[C@H]2C[C@@](C)(OC)[C@@H](O)[C@H](C)O2)[C@H](C)[C@@H](O[C@@H]2O[C@H](C)C[C@H](N(C)C)[C@H]2O)[C@](C)(O)C[C@@H](C)/C(=N/OCOCCOC)[C@H](C)[C@@H](O)[C@]1(C)O
6. ClC1C(Cl)C(Cl)C(Cl)C(Cl)C1Cl (centres undefined)

Resp:
[0.963, 0.319, 1.02, 0.843, 1.03, 0.942]

---

Assay: chemical genetic growth profiling, strain panel (AID 1159580);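 note: tested at 20 µM; growth read once vehicle control cultures reached saturation at 30 °C; 1 = growth at the plate median or of vehicle wells; lower values mean less growth of the strain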
Details: S. cerevisiae deletion strains, growth OD, locus YDR137W, strain rgp1, hits give low values
Out of some 5,500 compounds screened, about 2,000 (36%) were called active. Inconclusive results (about 18%) are left out. The list shows a part of the results.
VALUE_KIND: normalized growth
Numbers only.

Past entries and their recorded results:
O=C(N[C@@H](CO)[C@H](O)c1ccc([N+](=O)[O-])cc1)C(Cl)Cl
1.03
O=C1NS(=O)(=O)c2ccccc21
1.03
C=C(C)C1Cc2c(ccc3c(=O)c4c(oc23)COc2cc(OC)c(OC)cc2-4)O1 (stereo not drawn)
0.926
CO/N=C(/C(=O)NC1C(=O)N2C(C(=O)OCOC(=O)C(C)(C)C)=C(/C=C\c3scnc3C)CSC12)c1csc(N)n1 (stereo not drawn)
1.03
O=C1C=CC(=O)c2ccccc21
0.288
CC1(C)CC23C(=O)CCC(O)C2(C)CCC13 (stereo not drawn)
0.974
O=C(O)CCC(=O)OC[C@@H](NC(=O)C(Cl)Cl)[C@H](O)c1ccc([N+](=O)[O-])cc1
0.963

Okay, next one:
// normalized growth value for COCC1=C(C(=O)OC(C)OC(=O)OC(C)C)N2C(=O)[C@@H](NC(=O)/C(=N\OC)c3csc(N)n3)[C@H]2SC1 (stereo partly drawn) : 0.93

---

Provide the recorded normalized growth for the entries that follow.
Assay: chemical genetic growth profiling, strain panel (AID 1159580);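 note: tested at 20 µM; growth read once vehicle control cultures reached saturation at 30 °C; 1 = growth at the plate median or of vehicle wells; lower values mean less growth of the strain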
Settings: S. cerevisiae deletion strains, growth OD, locus YKR026C, strain gcn3, hits give low values
Out of some 5,500 compounds screened, about 2,000 (36%) were called active. Not shown: some 18% with an inconclusive outcome. The list shows a part of the results.

Below, each entry is followed by its recorded normalized growth result.
O=C(/C=C/c1ccccc1)c1ccc(O[C@@H]2O[C@H](CO)[C@@H](O)[C@H](O)[C@H]2O)cc1O
0.933 (inactive)
O=C(/C=C/c1ccc(O)cc1)c1ccccc1O
0.759 (active)
O=C(Nc1ccc([N+](=O)[O-])cc1Cl)c1cc(Cl)ccc1O
0.978 (inactive)
CCCCN(CC)c1c([N+](=O)[O-])cc(C(F)(F)F)cc1[N+](=O)[O-]
1.02 (inactive)

Kindly give each listed record's normalized growth.
1. C[N+]12CCC(CC1)C(OC(=O)C(O)(c1ccccc1)c1ccccc1)C2 (stereo not given)
2. O=c1c(O)cccc2cc(O)c(O)c(O)c12
3. O=C(O)c1cc(=O)c2ccccc2[nH]1

Resp:
1: 0.984 (inactive); 2: 0.915 (active); 3: 0.98 (inactive)

For each of the compounds below, note its normalized growth.
1. O=c1c(O)c(-c2ccccc2)oc2cccc(O)c12
2. CC(=O)O[C@H]1CC2CCC3C(CC[C@@]4(C)C3C[C@H]([N+]3(C)CCCCC3)[C@@H]4OC(C)=O)[C@@]2(C)C[C@@H]1N1CCCCC1 (stereo not given in full)
3. NS(=O)(=O)c1cc2c(cc1Cl)NCNS2(=O)=O

Resp:
1: 0.917 (active); 2: 0.998 (inactive); 3: 0.997 (inactive)
